# Test system: Liver HEP-2
# SETUP CONDITIONS: human

MOLECULE	TARGET OR TEST SYSTEM	Preliminary in vitro cytotoxicity data (%)
COc1cc2c(cc1OCCCCN1CCN(C(=S)SCCC(C#N)(c3ccccc3)c3ccccc3)CC1)N=C[C@@H]1CCCN1C2=O [Compound 12c]	Liver HEP-2	69

* * *

# System: Ovary OVCAR-5
# SETUP CONDITIONS: human
MEASUREMENT KIND: Preliminary in vitro cytotoxicity data (%)

COMPOUND	UNIT TAG	RECORDED MEASUREMENT
COc1cc2c(cc1OCCCCN1CCN(C(=S)SCCC(C#N)(c3ccccc3)c3ccccc3)CC1)N=C[C@@H]1CCCN1C2=O [Compound 12c]	%	24

* * *

# Test system: Colon HCT-15
# SETUP CONDITIONS: human

COMPOUND	TARGET OR TEST SYSTEM	UNIT TAG	Preliminary in vitro cytotoxicity data
COc1cc2c(cc1OCCCCN1CCN(C(=S)SCCC(C#N)(c3ccccc3)c3ccccc3)CC1)N=C[C@@H]1CCCN1C2=O [Compound 12c]	Colon HCT-15	%	75

* * *

# Test system: Lung A-549
# SETUP CONDITIONS: human

COMPOUND	Preliminary in vitro cytotoxicity data, %
COc1cc2c(cc1OCCCCN1CCN(C(=S)SCCC(C#N)(c3ccccc3)c3ccccc3)CC1)N=C[C@@H]1CCCN1C2=O [Compound 12c]	31

* * *

# Test system: Liver HEP-2
# MEASUREMENT DESCRIPTION: Preliminary in vitro cytotoxicity on six cell lines
# SETUP CONDITIONS: concentration (mg/ml) 1 × 10^−6 M, unit assumed
MEASUREMENT KIND: Preliminary in vitro cytotoxicity data (%)

COMPOUND	TARGET OR TEST SYSTEM	RECORDED MEASUREMENT
COc1cccc2c1C(=O)c1c(O)c3c(c(O)c1C2=O)C[C@@](O)(C(=O)CO)C[C@@H]3O[C@H]1C[C@H](N)[C@H](O)[C@H](C)O1 [Adriamycin, reference compound]	Liver HEP-2	31

* * *

# Tested on: Liver HEP-2
# MEASUREMENT DESCRIPTION: Preliminary in vitro cytotoxicity on six cell lines
# SETUP CONDITIONS: concentration (mg/ml) 1 × 10^−5 M, unit assumed

COMPOUND	Preliminary in vitro cytotoxicity data, %
COc1cc2c(cc1OCCCCCSC(=S)N1CCN(C)CC1)N=C[C@@H]1CCCN1C2=O [Compound 14d]	66
COc1cc2c(cc1OCCCCSC(=S)N1CCN(C)CC1)N=C[C@@H]1CCCN1C2=O [Compound 14c]	66

Origin of the recorded values: patent US8592407B2
